B1: CFHR2 (parent)
chain: FVENGHSESSGQTHLEGDTVQIIC

- Variants of: B1
- experimental details: protein stability index of a GFP-peptide fusion (GPS, HEK-293T) (PSI 1-6); higher = more stable;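 further: lentivirally expressed fusions sorted by FACS into six bins by GFP to DsRed ratio, PSI derived from sequencing read proportions per bin multiplied by bin number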
- measurement context: c terminus: a fixed tail appended
measured endpoint: protein stability index
Give the value as a plain number.

Task: Name the recorded protein stability index of the item FVENGHSESSGQTHLEGDTVQIIP [C24P] in your answer.
Output: 3.87

Task: Give the reported protein stability index for this variant. FVENGHSESSGQTHLEGDTVNIIC [Q21N]
Output: 3.29

Task: Find the measured protein stability index of YVENGHSESSGQTHLEGDTVQIIC [F1Y] and report it.
Output: 2.69

Task: Give protein stability index for FVENGHSESSGQTHLEGDTVTIIC [Q21T]
Output: 2.79

Task: Quick one: give measured protein stability index for FVENGHSESSGQTHLEDDTVQIIC [G17D]
Output: 3.46

Task: Give recorded protein stability index. FVEMGHSESSGQTHLEGDTVQIIC [N4M]
Output: 1.8

Task: Return value of protein stability index for input FVENGHSESSGQTHLEGDTVQIGC [I23G] , no commentary.
Output: 3.52

Task: Please indicate protein stability index recorded for FVENGHSESNGQTHLEGDTVQIIC [S10N]
Output: 2.99

Task: Supply recorded protein stability index for FVENGCSESSGQTHLEGDTVQIIC [H6C] here.
Output: 2.28

Task: State its protein stability index for this variant: FVENGHSESSFQTHLEGDTVQIIC [G11F]
Output: 1.98

Task: Query protein stability index for FVENGHSESSGQTHLEGDTVDIIC [Q21D]
Output: 3.69
